Molecular target: rat α1B+α2b+β1b channels (N-type channels) (Rattus norvegicus)
Sequence (Q02294 whole entry): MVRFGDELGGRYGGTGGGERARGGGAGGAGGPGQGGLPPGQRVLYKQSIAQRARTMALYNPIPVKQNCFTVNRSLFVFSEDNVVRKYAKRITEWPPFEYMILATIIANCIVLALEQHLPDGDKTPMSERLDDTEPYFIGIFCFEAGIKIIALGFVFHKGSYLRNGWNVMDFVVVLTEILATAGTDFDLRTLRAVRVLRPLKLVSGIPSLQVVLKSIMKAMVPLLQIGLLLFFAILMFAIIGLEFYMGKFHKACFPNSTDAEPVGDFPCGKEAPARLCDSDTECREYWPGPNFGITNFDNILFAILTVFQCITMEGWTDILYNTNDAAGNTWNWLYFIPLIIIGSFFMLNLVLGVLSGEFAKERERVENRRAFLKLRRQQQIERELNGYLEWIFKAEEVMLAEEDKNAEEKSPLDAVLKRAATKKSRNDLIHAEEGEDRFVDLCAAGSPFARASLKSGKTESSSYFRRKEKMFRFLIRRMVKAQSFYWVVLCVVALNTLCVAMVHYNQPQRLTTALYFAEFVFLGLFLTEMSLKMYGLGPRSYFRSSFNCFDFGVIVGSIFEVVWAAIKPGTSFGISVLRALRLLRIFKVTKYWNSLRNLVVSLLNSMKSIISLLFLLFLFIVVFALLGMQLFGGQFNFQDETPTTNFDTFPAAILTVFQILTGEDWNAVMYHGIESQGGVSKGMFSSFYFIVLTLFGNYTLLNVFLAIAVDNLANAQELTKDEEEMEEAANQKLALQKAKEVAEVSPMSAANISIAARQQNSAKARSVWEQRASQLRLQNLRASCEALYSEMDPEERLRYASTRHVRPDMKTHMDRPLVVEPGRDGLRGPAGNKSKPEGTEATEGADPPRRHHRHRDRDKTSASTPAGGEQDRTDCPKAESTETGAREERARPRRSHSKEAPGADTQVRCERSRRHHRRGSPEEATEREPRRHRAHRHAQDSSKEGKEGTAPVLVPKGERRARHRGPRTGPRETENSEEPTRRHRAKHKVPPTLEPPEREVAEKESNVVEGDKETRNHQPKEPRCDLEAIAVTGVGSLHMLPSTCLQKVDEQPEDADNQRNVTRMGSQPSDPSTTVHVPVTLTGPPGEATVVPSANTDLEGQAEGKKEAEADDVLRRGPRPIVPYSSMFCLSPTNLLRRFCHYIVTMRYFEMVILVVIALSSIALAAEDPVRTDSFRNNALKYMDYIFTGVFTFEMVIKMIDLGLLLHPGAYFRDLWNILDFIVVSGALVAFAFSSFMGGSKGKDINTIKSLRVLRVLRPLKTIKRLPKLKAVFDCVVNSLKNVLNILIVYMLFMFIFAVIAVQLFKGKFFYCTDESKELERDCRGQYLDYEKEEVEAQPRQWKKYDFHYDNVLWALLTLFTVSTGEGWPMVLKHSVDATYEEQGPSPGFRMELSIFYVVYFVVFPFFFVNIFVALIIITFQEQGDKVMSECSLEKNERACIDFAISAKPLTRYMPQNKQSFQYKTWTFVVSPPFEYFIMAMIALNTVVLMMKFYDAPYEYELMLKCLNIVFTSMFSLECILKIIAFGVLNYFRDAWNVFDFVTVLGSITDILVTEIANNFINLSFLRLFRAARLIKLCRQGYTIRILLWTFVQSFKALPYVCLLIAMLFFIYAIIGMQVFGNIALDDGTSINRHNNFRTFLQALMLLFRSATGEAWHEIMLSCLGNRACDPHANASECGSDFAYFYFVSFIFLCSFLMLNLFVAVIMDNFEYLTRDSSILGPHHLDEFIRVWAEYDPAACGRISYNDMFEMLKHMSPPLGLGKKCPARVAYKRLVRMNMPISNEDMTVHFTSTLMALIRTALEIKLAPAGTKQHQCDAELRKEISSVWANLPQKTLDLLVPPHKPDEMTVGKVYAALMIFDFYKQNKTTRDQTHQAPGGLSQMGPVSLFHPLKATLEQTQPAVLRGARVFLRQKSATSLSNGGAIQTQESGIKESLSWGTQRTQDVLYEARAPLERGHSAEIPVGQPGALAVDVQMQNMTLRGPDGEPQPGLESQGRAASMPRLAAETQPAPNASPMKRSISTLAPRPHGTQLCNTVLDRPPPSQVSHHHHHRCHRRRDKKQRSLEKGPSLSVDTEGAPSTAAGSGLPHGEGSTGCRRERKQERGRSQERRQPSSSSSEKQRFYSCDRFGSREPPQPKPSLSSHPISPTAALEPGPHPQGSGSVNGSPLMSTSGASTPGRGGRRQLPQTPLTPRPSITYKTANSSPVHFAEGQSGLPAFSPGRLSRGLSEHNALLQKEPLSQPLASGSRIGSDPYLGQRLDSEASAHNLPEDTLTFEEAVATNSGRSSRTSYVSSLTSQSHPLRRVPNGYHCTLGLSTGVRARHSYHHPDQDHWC
Sequence (P54290 25-944 partner limits assumed): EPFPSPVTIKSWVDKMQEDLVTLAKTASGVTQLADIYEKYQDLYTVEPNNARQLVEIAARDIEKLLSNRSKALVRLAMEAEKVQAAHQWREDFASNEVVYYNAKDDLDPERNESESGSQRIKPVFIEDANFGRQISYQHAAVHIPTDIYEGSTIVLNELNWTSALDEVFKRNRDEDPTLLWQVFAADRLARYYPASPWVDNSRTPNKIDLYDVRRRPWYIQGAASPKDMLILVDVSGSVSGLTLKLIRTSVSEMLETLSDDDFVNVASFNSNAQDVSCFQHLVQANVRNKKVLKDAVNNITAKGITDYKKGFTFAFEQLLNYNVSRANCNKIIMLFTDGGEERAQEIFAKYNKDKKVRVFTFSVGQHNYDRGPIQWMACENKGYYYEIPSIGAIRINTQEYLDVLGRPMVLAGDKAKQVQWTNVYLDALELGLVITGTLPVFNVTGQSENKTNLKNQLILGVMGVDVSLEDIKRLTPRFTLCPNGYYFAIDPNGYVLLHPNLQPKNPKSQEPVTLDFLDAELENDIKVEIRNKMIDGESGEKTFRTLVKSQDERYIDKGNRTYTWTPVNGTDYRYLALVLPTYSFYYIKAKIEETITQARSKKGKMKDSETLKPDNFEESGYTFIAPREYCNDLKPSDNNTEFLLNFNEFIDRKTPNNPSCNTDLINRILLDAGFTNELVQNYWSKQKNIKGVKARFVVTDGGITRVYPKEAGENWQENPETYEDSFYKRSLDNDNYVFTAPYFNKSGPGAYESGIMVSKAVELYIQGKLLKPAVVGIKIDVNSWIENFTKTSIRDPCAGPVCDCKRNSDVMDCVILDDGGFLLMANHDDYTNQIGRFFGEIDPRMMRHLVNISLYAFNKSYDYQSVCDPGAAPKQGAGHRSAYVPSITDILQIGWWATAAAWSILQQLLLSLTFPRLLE
Sequence (P54290 945-1091 partner limits assumed): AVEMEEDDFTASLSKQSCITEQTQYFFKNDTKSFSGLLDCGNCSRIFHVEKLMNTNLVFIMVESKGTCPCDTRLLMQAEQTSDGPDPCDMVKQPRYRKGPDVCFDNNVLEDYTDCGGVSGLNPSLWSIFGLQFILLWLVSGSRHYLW
Sequence (P54283 whole entry partner): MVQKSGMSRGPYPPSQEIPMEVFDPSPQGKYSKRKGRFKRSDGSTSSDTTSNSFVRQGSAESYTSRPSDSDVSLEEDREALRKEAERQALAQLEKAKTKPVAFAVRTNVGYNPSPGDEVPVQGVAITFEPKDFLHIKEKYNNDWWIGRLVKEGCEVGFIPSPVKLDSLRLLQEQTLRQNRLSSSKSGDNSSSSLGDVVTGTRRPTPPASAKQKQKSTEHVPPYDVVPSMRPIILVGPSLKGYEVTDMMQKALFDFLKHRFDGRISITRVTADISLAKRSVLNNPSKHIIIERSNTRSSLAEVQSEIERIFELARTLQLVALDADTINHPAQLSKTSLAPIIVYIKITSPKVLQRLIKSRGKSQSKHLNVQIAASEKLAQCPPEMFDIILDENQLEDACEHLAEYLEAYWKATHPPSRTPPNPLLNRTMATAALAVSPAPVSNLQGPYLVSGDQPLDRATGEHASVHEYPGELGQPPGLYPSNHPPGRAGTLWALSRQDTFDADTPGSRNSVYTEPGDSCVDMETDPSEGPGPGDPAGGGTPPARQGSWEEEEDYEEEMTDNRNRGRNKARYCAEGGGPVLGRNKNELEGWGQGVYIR
Experiment: Whole cell patch recordings, N-type calcium channel block (Examples 1 and 4)
Conditions: block of N-type calcium channels, HEK cells, 5 mM barium as charge carrier
pIC50: −log10 of the molar value.
outcome measure: pIC50

Completed entries (count: 3):
O=C(C(c1ccccc1)C1CCCCC1)N1CCN(CC=Cc2ccccc2)CC1 (stereo not drawn)
5.23
C(CCN1CCN(CC2CCCCC2)CC1)=C(c1ccccc1)c1ccccc1
5.28
c1ccc(C(CN2CCN(CC(c3ccccc3)C3CCCCC3)CC2)c2ccccc2)cc1 (stereo not drawn)
4.70

A: O=C(C(c1ccccc1)C1CCCCC1)N1CCN(Cc2ccccc2)CC1 (stereo not drawn)
B: c1ccc(CNC2CCN(CCC(c3ccccc3)c3ccccc3)CC2)cc1
Determine, for A and B , which has the greater value of pIC50. Write down the label of the entry you select. B

P: O=C(CCCCCC(c1ccccc1)C1CCCCC1)N1CCN(C(c2ccccc2)c2ccccc2)CC1 (stereo not drawn)
Q: O=C(C(c1ccccc1)C1CCCCC1)N1CCN(CC(c2ccccc2)c2ccccc2)CC1 (stereo not drawn)
R: O=C(CCCCC(c1ccccc1)c1ccccc1)N1CCC(NCC2CCCCC2)CC1
Sort these compounds on pIC50 so the largest reading comes first. Show the ranking through the labels, in the order asked for. R, P, Q

* * *

Target: N-type calcium channels (α1B+α2δ+β1b cDNA subunits) (Rattus norvegicus, UniProt Q02294)
Construct: expressed in transfected cells
Sequence (Q02294 whole entry): as the sequence (Q02294 whole entry) above
Sequence (P54290 25-944 partner limits assumed): as the sequence (P54290 25-944 partner limits assumed) above
Sequence (P54290 945-1091 partner limits assumed): as the sequence (P54290 945-1091 partner limits assumed) above
Sequence (P54283 whole entry partner): as the sequence (P54283 whole entry partner) above
Assay: Whole cell patch clamp, tonic and frequency dependent block, N-type channels in HEK 293 (Example 5)
Type: cell-based
Settings: α1B (N-type), 100 nM, 0.03 Hz (tonic block)
outcome measure: % Block (100 nM) 0.03 Hz (%)

COc1ccc(CN2CCN(C(c3ccc(F)cc3)c3ccc(F)cc3)CC2)c(OC)c1OC [39-36-1 Lomerizine, Lomerizine, reference compound]
24

a: Nc1ccc(/C=C/C(=O)N2CCN(C(=O)CCCCC(c3ccccc3)c3ccccc3)CC2)cc1 [SH-134]
b: O=C(CCCCC(c1ccccc1)c1ccccc1)N1CCC(NCC2CCCCC2)CC1 [JM-G-10]
c: O=C(/C=C/c1ccc2c(c1)OCO2)N1CCN(C(=O)CCCCC(c2ccccc2)c2ccccc2)CC1 [SH-123B]
Sort these molecules on % Block (100 nM) 0.03 Hz so the largest reading comes first. Show the ranking through the labels, in the order asked for. b, a, c
(b: 38%, a: 20%, c: 9%)

* * *

Target: L-type channels (α1C+α2δ+β1b cDNA subunits) (UniProt P22002)
Construct: other: α1C (L-type), 100 nM, 0.03 Hz; other: α1C (L-type), 100 nM, 0.2 Hz; other: α1C (L-type), 0.03 Hz; other: α1C (L-type), 0.2 Hz
Test: Whole cell patch clamp, tonic and frequency dependent block, L-type channels in HEK 293 (Example 5)
Assay type: cell-based
Details: α1C (L-type), 100 nM, 0.2 Hz
outcome measure: % Block (100 nM) 0.2 Hz (%)

Completed entries (count: 5):
O=C(CCCCC(c1ccccc1)c1ccccc1)N1CCN(C/C=C/c2ccccc2)CC1 [MC-34D]
24
O=C(/C=C/c1ccc2c(c1)OCO2)N1CCN(C(=O)CCCCC(c2ccccc2)c2ccccc2)CC1 [SH-123B]
14
COc1cc(CN2CCN(CCCCCC(c3ccc(F)cc3)c3ccc(F)cc3)CC2)cc(OC)c1OC [39-45-3]
26
Nc1ccc(/C=C/C(=O)N2CCN(C(=O)CCCCC(c3ccccc3)c3ccccc3)CC2)cc1 [SH-134]
21
O=C(CC(c1ccccc1)c1ccccc1)N1CCN(C(c2ccccc2)c2ccccc2)CC1 [39-1-B4]
29

A: CC(=O)Nc1ccc(/C=C/C(=O)N2CCN(C(=O)CCCCC(c3ccccc3)c3ccccc3)CC2)cc1 [SH-136]
B: O=C(CCCCC(c1ccccc1)c1ccccc1)N1CCC(NCC2CCCCC2)CC1 [JM-G-10]
C: COc1ccc(CN2CCN(C(c3ccc(F)cc3)c3ccc(F)cc3)CC2)c(OC)c1OC [39-36-1 Lomerizine, Lomerizine, reference compound]
D: COc1cc(C(=O)N2CCN(C(c3ccc(F)cc3)c3ccc(F)cc3)CC2)cc(OC)c1OC [39-36-2]
Sort these molecules on % Block (100 nM) 0.2 Hz so the largest reading comes first. Show the ranking through the labels, in the order asked for. C, D, B, A

Source listed as patent US7064128B2.
